Every entry's value here was drawn from patent US20080318246A1.

target: 14-3-3τ (UniProt P27348); test: cell-based or functional assay
Sequence (P27348 whole entry): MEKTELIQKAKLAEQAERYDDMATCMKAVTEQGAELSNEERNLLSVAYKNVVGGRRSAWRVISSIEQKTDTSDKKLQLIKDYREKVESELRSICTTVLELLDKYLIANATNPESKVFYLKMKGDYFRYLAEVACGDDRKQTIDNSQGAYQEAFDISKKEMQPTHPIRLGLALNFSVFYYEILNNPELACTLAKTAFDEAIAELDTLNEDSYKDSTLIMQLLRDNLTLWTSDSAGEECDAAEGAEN
# PKA-induced fluorescence change; Alizarin Red 10x listing for each entry below
OBSERVATION TYPE: PKA-induced fluorescence change; Alizarin Red 10x (fold)

SUBSTANCE	VALUE
P3, Ac-GRTDap(Pyr)RRFSYP-amide, serine-phosphorylated by PKA in the assay (peptide)	1.21
P2, Ac-GRTGRRDap(Pyr)SYP-amide, serine-phosphorylated by PKA in the assay (peptide)	1.38
phosphorylated P5 peptide AcDap(Pyr)RTGRRFS(PO3 2-)YP-amide	1.59
P4, Ac-GRDap(Pyr)GRRFSYP-amide, serine-phosphorylated by PKA in the assay (peptide)	1.33

* * *

target: 14-3-3τ (UniProt P27348); experiment: cell-based or functional assay
Property: PKA-induced fluorescence change; Reactive Blue 2 50x; scope: individual substances
OBSERVATION TYPE: PKA-induced fluorescence change; Reactive Blue 2 50x (fold)

SUBSTANCE	UNIT TAG	VALUE
P4, Ac-GRDap(Pyr)GRRFSYP-amide, serine-phosphorylated by PKA in the assay (peptide)	fold	4.27
P3, Ac-GRTDap(Pyr)RRFSYP-amide, serine-phosphorylated by PKA in the assay (peptide)	fold	1.68
phosphorylated P5 peptide AcDap(Pyr)RTGRRFS(PO3 2-)YP-amide	fold	5.79
P2, Ac-GRTGRRDap(Pyr)SYP-amide, serine-phosphorylated by PKA in the assay (peptide)	fold	6.3

* * *

biological target: 14-3-3τ (UniProt P27348); assay: cell-based or functional assay
OBSERVATION TYPE: PKA-induced fluorescence change; Trypan Blue 10x

SUBSTANCE	VALUE
phosphorylated P5 peptide AcDap(Pyr)RTGRRFS(PO3 2-)YP-amide	2.72 fold
P2, Ac-GRTGRRDap(Pyr)SYP-amide, serine-phosphorylated by PKA in the assay (peptide)	2.81 fold
P3, Ac-GRTDap(Pyr)RRFSYP-amide, serine-phosphorylated by PKA in the assay (peptide)	2.72 fold
P4, Ac-GRDap(Pyr)GRRFSYP-amide, serine-phosphorylated by PKA in the assay (peptide)	2.18 fold

* * *

target: 14-3-3τ (UniProt P27348); test: cell-based or functional assay
PKA-induced fluorescence change; Evans Blue 25x values, listed per item
OBSERVATION TYPE: PKA-induced fluorescence change; Evans Blue 25x (fold)

SUBSTANCE	VALUE
P3, Ac-GRTDap(Pyr)RRFSYP-amide, serine-phosphorylated by PKA in the assay (peptide)	1.06
phosphorylated P5 peptide AcDap(Pyr)RTGRRFS(PO3 2-)YP-amide	0.84
P2, Ac-GRTGRRDap(Pyr)SYP-amide, serine-phosphorylated by PKA in the assay (peptide)	1.01
P4, Ac-GRDap(Pyr)GRRFSYP-amide, serine-phosphorylated by PKA in the assay (peptide)	0.89

* * *

target: 14-3-3τ (UniProt P27348); experiment: cell-based or functional assay
OBSERVATION TYPE: PKA-induced fluorescence change; Reactive Blue 2 25x (fold)

SUBSTANCE	VALUE
phosphorylated P5 peptide AcDap(Pyr)RTGRRFS(PO3 2-)YP-amide	6.44
P2, Ac-GRTGRRDap(Pyr)SYP-amide, serine-phosphorylated by PKA in the assay (peptide)	5.66
P3, Ac-GRTDap(Pyr)RRFSYP-amide, serine-phosphorylated by PKA in the assay (peptide)	3.56
P4, Ac-GRDap(Pyr)GRRFSYP-amide, serine-phosphorylated by PKA in the assay (peptide)	3.55

* * *

Listed next: entries and their corresponding PKA-induced fluorescence change; Rose Bengal 5x.
biological target: 14-3-3τ (UniProt P27348); experiment: cell-based or functional assay
OBSERVATION TYPE: PKA-induced fluorescence change; Rose Bengal 5x (fold)

SUBSTANCE	VALUE
P3, Ac-GRTDap(Pyr)RRFSYP-amide, serine-phosphorylated by PKA in the assay (peptide)	2.7
P2, Ac-GRTGRRDap(Pyr)SYP-amide, serine-phosphorylated by PKA in the assay (peptide)	2.58
phosphorylated P5 peptide AcDap(Pyr)RTGRRFS(PO3 2-)YP-amide	8.36
P4, Ac-GRDap(Pyr)GRRFSYP-amide, serine-phosphorylated by PKA in the assay (peptide)	6.52

* * *

biological target: 14-3-3τ (UniProt P27348); assay: cell-based or functional assay
Entries and their measured PKA-induced fluorescence change; Eriochrome Black T 25x follow.
OBSERVATION TYPE: PKA-induced fluorescence change; Eriochrome Black T 25x (fold)

SUBSTANCE	VALUE
P3, Ac-GRTDap(Pyr)RRFSYP-amide, serine-phosphorylated by PKA in the assay (peptide)	0.58
phosphorylated P5 peptide AcDap(Pyr)RTGRRFS(PO3 2-)YP-amide	0.84
P2, Ac-GRTGRRDap(Pyr)SYP-amide, serine-phosphorylated by PKA in the assay (peptide)	1.13
P4, Ac-GRDap(Pyr)GRRFSYP-amide, serine-phosphorylated by PKA in the assay (peptide)	0.59
